- STUDY_TARGET: Butyrophilin Subfamily 2 Member A1 (BTN2A1) (human) (UniProt Q7KYR7)
- METHOD_NOTES: cell-based or functional assay
ENDPOINT_NAME: IFNγ production relative to GAB-AJ8s (GAB expression media, MZ1851RC, 30 µM pamidronate) (fold)
# unit: fold | format: bare number

Q: Can you look up the measured IFNγ production relative to GAB-AJ8s (GAB expression media, MZ1851RC, 30 µM pamidronate) of GAB-AJ8sγT81W (TCR, part only; not given: CDR3 delta, constant parts, anti-CD3 scFv, part only) TCR gamma, part: AGHLEQPQISSTKTLSKTARLECVVSGITISATSVYWYRERPGEVIQFLVSISYDGTVRKESGIPSGKFEVDYIPETSTSWLTIHNVEKQDIATYYCALWE TCR delta, part: AIELVPEHQTVPVSIGVPATLRCSMKGEAIGNYYINWYRKTQGNTMTFIYREKDIYGPGFKDNFQGDIDIAKNLAVLKILAPSERDEGSYYCACDT for me?
A: 2
